# system-under-test: T1, orthogonal hCD122 receptor (hoRb), hCD122 with H133D and Y134F (human, UniProt P14784 27-550); also: reference of the scale not given here
# T1 sequence: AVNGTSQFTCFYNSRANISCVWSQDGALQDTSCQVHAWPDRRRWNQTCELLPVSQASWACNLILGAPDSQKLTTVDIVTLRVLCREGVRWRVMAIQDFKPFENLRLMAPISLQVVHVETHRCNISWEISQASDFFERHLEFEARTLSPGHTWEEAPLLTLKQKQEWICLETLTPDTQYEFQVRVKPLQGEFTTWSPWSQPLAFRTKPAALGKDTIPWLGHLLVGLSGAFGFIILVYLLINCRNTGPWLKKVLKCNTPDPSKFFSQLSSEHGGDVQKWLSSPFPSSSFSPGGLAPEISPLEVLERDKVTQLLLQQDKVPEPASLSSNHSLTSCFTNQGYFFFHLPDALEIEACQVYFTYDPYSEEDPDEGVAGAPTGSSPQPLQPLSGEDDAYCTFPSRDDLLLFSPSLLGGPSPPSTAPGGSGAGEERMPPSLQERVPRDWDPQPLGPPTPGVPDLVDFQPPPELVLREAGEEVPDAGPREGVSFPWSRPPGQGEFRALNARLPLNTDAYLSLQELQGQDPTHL
# experiment-summary: cell-based or functional assay
experimental-endpoint: Relative Proliferation Fold Change 3F8 1:10 (fold)

>>> measured_result("M104A, SQVLKA (ligand) APTSSSTKKTQLQLSQLLVLLKAILNGINNYKNPKLTRMLTFKFYMPKKATELKHLQCLEEELKPLEEVLNLAQSKNFHLRPRDLISNINVIVLELKGSETTFACEYADETATIVEFLNRWITFCQSIISTLT")
37.6

a. L18K, SQVLKA (ligand) APTSSSTKKTQLQLSQLKVLLKAILNGINNYKNPKLTRMLTFKFYMPKKATELKHLQCLEEELKPLEEVLNLAQSKNFHLRPRDLISNINVIVLELKGSETTFMCEYADETATIVEFLNRWITFCQSIISTLT
b. L18E, SQVLKA (ligand) APTSSSTKKTQLQLSQLEVLLKAILNGINNYKNPKLTRMLTFKFYMPKKATELKHLQCLEEELKPLEEVLNLAQSKNFHLRPRDLISNINVIVLELKGSETTFMCEYADETATIVEFLNRWITFCQSIISTLT
c. T3R, SQVLKA (ligand) APRSSSTKKTQLQLSQLLVLLKAILNGINNYKNPKLTRMLTFKFYMPKKATELKHLQCLEEELKPLEEVLNLAQSKNFHLRPRDLISNINVIVLELKGSETTFMCEYADETATIVEFLNRWITFCQSIISTLT
Task: Form: Sort by [Relative Proliferation Fold Change 3F8 1:10] Order [ ascending ] Show the ranking through the labels, in the order asked for.
Result: b, c, a
